# ASSAY PROTOCOL: in vitro
# Assay type: in vitro ADME
# CONDITION: human; Caco-2 monolayer; ER>2 indicates potential efflux transporter substrate; read-out: ER (efflux ratio)
Task for the reader: assign each of the following compounds its reported efflux ratio at 90 min.
Quick one: just the number, no unit, thanks!

Fill blank: measured efflux ratio at 90 min of the compound "CC(C)[C@H](N)C(=O)O[C@H]1[C@@H](O)[C@](C#N)(c2ccc3c(N)ncnn23)O[C@@H]1COC(=O)Cc1ccccc1" is ____.
0.3

Fill blank: measured efflux ratio at 90 min of the compound "CCC(=O)OC[C@H]1O[C@@H](n2cnc3c(NC)nc(N)nc32)[C@](C)(F)[C@@H]1O" is ____.
1.6

Fill blank: measured efflux ratio at 90 min of the compound "CC(C)C(=O)Nc1ncnn2c([C@]3(C#N)O[C@H](COC(=O)Cc4ccccc4)[C@@H](OC(=O)[C@@H](N)C(C)(C)C)[C@H]3O)ccc12" is ____.
4.1

Fill blank: measured efflux ratio at 90 min of the compound "CNc1nc(NC(=O)Cc2ccccc2)nc2c1ncn2[C@@H]1O[C@H](COC(C)=O)[C@@H](O)[C@@]1(C)F" is ____.
25

====

# ASSAY PROTOCOL: in vitro
# Format: in vitro ADME
# CONDITION: human; Caco-2 monolayer, apical to basolateral, 90-minute incubation; read-out: Papp, A-B
Task for the reader: assign each of the following compounds its reported Papp A→B at 90 min.
// return numeric value only (unit: ×10⁻⁶ cm/s, not printed)

Fill blank: measured Papp A→B at 90 min of the compound "CC(C)C(=O)O[C@H]1[C@@H](O)[C@](C#N)(c2ccc3c(N)ncnn23)O[C@@H]1COC(=O)Cc1ccccc1" is ____.
2.7

Fill blank: measured Papp A→B at 90 min of the compound "CNc1nc(N)nc2c1ncn2[C@@H]1O[C@H](COC(=O)Cc2ccccc2)[C@@H](OC(C)=O)[C@@]1(C)F" is ____.
14

Fill blank: measured Papp A→B at 90 min of the compound "CC(C)(C)C(=O)OCO[C@H]1[C@@H](O)[C@](C#N)(c2ccc3c(N)ncnn23)O[C@@H]1COC(=O)Cc1ccccc1" is ____.
6.9

Fill blank: measured Papp A→B at 90 min of the compound "N#C[C@@]1(c2ccc3c(N)ncnn23)O[C@H](COC(=O)Cc2ccccc2)[C@@H](O)[C@H]1O" is ____.
3

Fill blank: measured Papp A→B at 90 min of the compound "N#C[C@@]1(c2ccc3c(NC(=O)c4ccccc4)ncnn23)O[C@H](CO)[C@@H](OC(=O)Cc2ccccc2)[C@H]1O" is ____.
0.67

Fill blank: measured Papp A→B at 90 min of the compound "CC(=O)OC[C@H]1O[C@@](C#N)(c2ccc3c(N)ncnn23)[C@H](O)[C@@H]1OC(=O)Cc1ccccc1" is ____.
1.4

Fill blank: measured Papp A→B at 90 min of the compound "N#C[C@@]1(c2ccc3c(N)ncnn23)O[C@H](COC(=O)Cc2ccccc2)[C@@H](OC(=O)Cc2ccccc2)[C@H]1O" is ____.
9.8

Fill blank: measured Papp A→B at 90 min of the compound "CNc1nc(NC(=O)Cc2ccccc2)nc2c1ncn2[C@@H]1O[C@H](COC(C)=O)[C@@H](O)[C@@]1(C)F" is ____.
0.76

Fill blank: measured Papp A→B at 90 min of the compound "CC(=O)O[C@@H]1[C@H](OC(=O)[C@@H](N)C(C)C)[C@@H](COC(=O)Cc2ccccc2)O[C@@]1(C#N)c1ccc2c(N)ncnn12" is ____.
1.2

Fill blank: measured Papp A→B at 90 min of the compound "CC(C)[C@H](N)C(=O)O[C@H]1[C@@H](O)[C@](C#N)(c2ccc3c(NC(=O)OCOC(=O)C(C)(C)C)ncnn23)O[C@@H]1COC(=O)Cc1ccccc1" is ____.
0.49

Fill blank: measured Papp A→B at 90 min of the compound "CCC(=O)OC[C@H]1O[C@@](C#N)(c2ccc3c(N)ncnn23)[C@H](O)[C@@H]1OC(=O)Cc1ccccc1" is ____.
3.3

Fill blank: measured Papp A→B at 90 min of the compound "CNc1nc(N)nc2c1ncn2[C@@H]1O[C@H](COC(=O)C(C)C)[C@@H](OC(=O)Cc2ccccc2)[C@@]1(C)F" is ____.
6.2

Fill blank: measured Papp A→B at 90 min of the compound "CCCCCOC(=O)Nc1ncnn2c([C@]3(C#N)O[C@H](CO)[C@@H](OC(=O)Cc4ccccc4)[C@H]3O)ccc12" is ____.
0.14
